# system_tested: human full-length HSP90 (Homo sapiens, UniProt P08238)
# Construct: E. coli expressed human full-length HSP90 protein, purified >95%; made in house; host or cells: E. coli
# Sequence (P08238 whole entry): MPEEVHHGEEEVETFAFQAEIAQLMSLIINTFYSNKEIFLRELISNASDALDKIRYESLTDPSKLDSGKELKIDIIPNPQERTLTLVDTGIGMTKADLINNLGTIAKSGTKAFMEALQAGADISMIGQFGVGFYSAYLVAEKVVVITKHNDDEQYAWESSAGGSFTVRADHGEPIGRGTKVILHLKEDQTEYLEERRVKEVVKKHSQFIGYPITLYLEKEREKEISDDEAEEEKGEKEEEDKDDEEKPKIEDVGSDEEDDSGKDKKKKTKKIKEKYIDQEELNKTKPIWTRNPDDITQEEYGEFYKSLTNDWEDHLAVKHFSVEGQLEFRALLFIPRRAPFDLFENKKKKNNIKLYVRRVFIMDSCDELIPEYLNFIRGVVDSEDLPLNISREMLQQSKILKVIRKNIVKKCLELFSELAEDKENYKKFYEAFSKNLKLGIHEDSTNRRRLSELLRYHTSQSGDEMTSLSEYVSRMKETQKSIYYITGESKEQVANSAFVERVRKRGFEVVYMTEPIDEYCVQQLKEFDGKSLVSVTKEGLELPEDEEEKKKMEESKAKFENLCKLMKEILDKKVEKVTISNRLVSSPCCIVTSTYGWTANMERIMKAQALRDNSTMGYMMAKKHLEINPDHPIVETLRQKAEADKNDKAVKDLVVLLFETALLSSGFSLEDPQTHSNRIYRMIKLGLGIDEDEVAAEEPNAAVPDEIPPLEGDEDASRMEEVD
# procedure_text: Fluorescence polarization assay (competitive displacement of probe RBT0045864-FAM from HSP90)
# Type: binding

{"columns": ["mol_smiles", "IC50"],
 "data": [
  ["CCOc1ccc(-c2c(C#N)c(N)nc3sc(C(N)=O)c(N)c23)cc1", "< 10 µM"]
]}
